Listing of entries alongside the reported growth.
- Test system: SNB-75 CNS
- experiment: NCI-60 one-dose screen, 48 h (100 = growth as untreated, 0 = no growth, -100 = all killed)
- run.conditions: 10 µM unless noted
Compounds without any hit were thinned out: in the full panel of roughly 83,000, 20% have a hit.
# number only, unit % dropped from output

As a guide, the following entries are already answered.
Cc1c2c(cc[n+]1Cc1ccccc1)c1ccc(OCc3ccccc3)cc1n2Cc1ccccc1
-18
C=C1C(=O)O[C@H]2[C@H]1CC/C(COC(=O)/C=C/c1c[nH]c3ccccc13)=C\CC[C@@]1(C)O[C@@H]21
-53.7

Write down growth measured for item Cn1c(COC(=O)NCCc2ccccn2)nc2c(N3CCOCC3)nc(Cl)nc21
14.5

Write down growth measured for item CN1CCN(CC#CCNC(=O)[C@]23CCC(C)(C)C[C@H]2C2=CC[C@@H]4[C@@]5(C)Cc6c([nH]c7ccccc67)C(C)(C)[C@@H]5CC[C@@]4(C)[C@]2(C)CC3)CC1
92.7

Write down growth measured for item COc1cc(C2CC(c3cccc(Nc4ccncc4)c3)=NN2c2ccccc2)cc(OC)c1OC (configuration not stated)
44.2

----------
- System: 786-0 renal
- experiment: NCI-60 one-dose screen, 48 h (100 = growth as untreated, 0 = no growth, -100 = all killed)
- run.conditions: 10 µM unless noted
- Protocol: Cells are grown in 96 well plates and exposed to the test compound for 48 hours. Compounds are tested at a single concentration, which is 10^-5 M for most compounds. The reported endpoint is percent growth (GI% or GIPRCNT), where numbers from 0 - 100% represent growth inhibition, and numbers from -100% - 0 represent cell death. For example, a value of 40 represents 60% growth inhibition. A value of 0 means no net growth occurred over the course of the experiment. […]
This is part of a sample that, as a whole, favours compounds with a hit. Of some 83,000 tested, about 20% had one in any assay.
Output Condition met for growth not less than 90%; output Condition not met otherwise.

// below: answered compounds
Nc1c(C(=O)Nc2cccc3ccncc23)sc2nc3c(cc12)C(=O)CCC3
Condition not met
COc1cc2c(cc1[N+](=O)[O-])-c1ccc([N+](=O)[O-])cc1/C2=N\O
Condition not met
CC[C@H](C)[C@@H]1NC(=O)[C@H](Cc2ccc(O)cc2)N(C)C(=O)[C@H](Cc2ccccc2)NC(=O)CN(C)C(=O)[C@@H]2CCCN2C(=O)[C@@H](Cc2ccccc2)N(C)C(=O)[C@H](CC(C)C)NC1=O
Condition not met
CN1C(=O)N(C)C2NC(N/N=C/c3ccccc3)=NC21 (stereo not given)
Condition met
C=C1C(=O)O[C@H]2[C@H]1CC/C(CNC(=O)/C=C/c1ccc(Br)cc1)=C\CC[C@@]1(C)O[C@@H]21
Condition not met
CC(C)C1C2=C(NCCN1C(=O)Cc1ccccc1)C(C)(C)N(Cc1ccccc1)C2=O (stereo not given)
Condition met
CC(C)Cc1ccc(C(C)C(=O)NCc2c[nH]c3ccc(Cl)cc23)cc1 (stereo not given)
Condition met
COc1ccc(-c2nc(N=Nc3c(O)[nH]c4ccccc34)nc(N3CCOCC3)c2C#N)cc1
Condition not met
C=C1C(=O)O[C@H]2[C@H]1CC/C(COC(=O)CCCCCC(=O)OC/C1=C/CC[C@@]3(C)O[C@H]3[C@H]3OC(=O)C(=C)[C@@H]3CC1)=C\CC[C@@]1(C)O[C@@H]21
Condition not met
CC[C@H](CC[C@@H](C)[C@H]1CC[C@H]2[C@@H]3CC=C4C[C@@H](OCCc5nn[nH]n5)CC[C@]4(C)[C@H]3CC[C@]12C)C(C)C
Condition met

Threshold query (growth >= 90%) on Cn1c(=O)c2[nH]c(CCCc3nc4c([nH]3)c(=O)n(C)c(=O)n4C)nc2n(C)c1=O
Condition met

Threshold query (growth >= 90%) on CC1CCN(C(=O)OCc2nc3nc(Cl)nc(N4CCOCC4)c3[nH]2)CC1
Condition not met

Threshold query (growth >= 90%) on CCCC/C(=N\N=C(N)N)c1ccc(F)cc1
Condition not met

Entry source: PubChem BioAssay (NCI)
